- System: U-2-OS (Osteosarcoma);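 further: after 72 h of two-drug dosing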
- procedure.details: Bliss excess, mean over the matrix (fraction); higher = more synergy
Exercise: state measured Bliss excess for each of the compounds provided.
Answer using only a numeral; do not append any unit.

Query string: Recall and state the measured Bliss excess for C[C@@H](c1ccc2nccn2c1)n1nnc2ncc(-c3cnn(C)c3)nc21 [Savolitinib] + Cc1c2c(nn1C)CSCc1cc(n(C)n1)CSc1cc(c3ccccc3c1)OCCCc1c(C(=O)O)n(C)c3c-2c(Cl)ccc13 [AZD5991] (first compound max 1 µM, 7x7, partner max 1 µM) .
Result string: -0.0271

Query string: Recall and state the measured Bliss excess for CC1(C)CCC(CN2CCN(c3ccc(C(=O)NS(=O)(=O)c4ccc(NCC5CCOCC5)c([N+](=O)[O-])c4)c(Oc4cnc5[nH]ccc5c4)c3)CC2)=C(c2ccc(Cl)cc2)C1 [Venetoclax] + C[C@@H](Nc1cc(F)cc(F)c1)c1cc(C(=O)N(C)C)cc2c(=O)cc(N3CCOCC3)oc12 [AZD8186] (first compound max 1 µM, 7x7, partner max 3 µM) .
Result string: -0.0269

Query string: Recall and state the measured Bliss excess for N#Cc1cnc(Nc2cc(NC[C@H]3CNCCO3)c(C(F)(F)F)cn2)cn1 [SRA737] + Nc1ccn([C@@H]2O[C@H](CO)[C@@H](O)C2(F)F)c(=O)n1 [Gemcitabine] (first compound max 10 µM, 7x7, partner max 0.3 µM) .
Result string: 0.051

Query string: Recall and state the measured Bliss excess for C[C@@H]1COCCN1c1cc(C2([S@](C)(=N)=O)CC2)nc(-c2ccnc3[nH]ccc23)n1 [AZD6738] + C1CC(C1)(C(=O)[O-])C(=O)[O-].N.N.[Pt+2] [Carboplatin] (first compound max 10 µM, 7x7, partner max 10 µM) .
Result string: -0.0234

Query string: Recall and state the measured Bliss excess for CS(=O)(=O)CCNCc1ccc(-c2ccc3ncnc(Nc4ccc(OCc5cccc(F)c5)c(Cl)c4)c3c2)o1 [Lapatinib] + Cn1cnc2c(F)c(Nc3ccc(Br)cc3Cl)c(C(=O)NOCCO)cc21 [Selumetinib] (first compound max 10 µM, 7x7, partner max 10 µM) .
Result string: -0.0563

Query string: Recall and state the measured Bliss excess for Cc1nc(Nc2ncc(C(=O)Nc3c(C)cccc3Cl)s2)cc(N2CCN(CCO)CC2)n1 [Dasatinib] + CC(=O)Nc1cccc(-n2c(=O)n(C3CC3)c(=O)c3c(Nc4ccc(I)cc4F)n(C)c(=O)c(C)c32)c1 [Trametinib] (first compound max 2 µM, 7x7, partner max 1 µM) .
Result string: -0.0411

Query string: Recall and state the measured Bliss excess for NC1(C(=O)N[C@@H](CCO)c2ccc(Cl)cc2)CCN(c2ncnc3[nH]ccc23)CC1 [Capivasertib] + CC(C)n1c(=O)n(C)c2cnc3cc(F)c(-c4ccc(OCCCN5CCCCC5)nc4)cc3c21 [AZD1390] (first compound max 10 µM, 7x7, partner max 0.3 µM) .
Result string: -0.0453
